tested on: HCT116 cells; assay: Iniparib metabolites release, XLC-MS/MS of incubation media; format: in vitro ADME, human; set-up: unit not given beside the values; conditions: HCT116 w BSO, 24 h after 100 μM Iniparib
measured_property: Iniparib and metabolites in incubation media

molecule | measurement
NC(=O)c1ccc(I)c(N)c1 [I-ABM, 4-iodo-3 aminobenzamide] | 4.4 ± 1.2

Please respond with reported Iniparib and metabolites in incubation media (system HCT116 cells) for NC(=O)c1ccc(I)c(N=O)c1 .
26.5 ± 2.9

Retrieve Iniparib and metabolites in incubation media on HCT116 cells; query NC(=O)c1ccc(I)c(NO)c1
0.1 ± 0.0

// output Iniparib and metabolites in incubation media; input NC(=O)c1ccc(I)c([N+](=O)[O-])c1 [Iniparib, 4-iodo-3-nitrobenzamide] ; system HCT116 cells
72.9 ± 7.4

====

test: Phase I clinical trial GBM, pharmacokinetics; format: in vivo, human; details: human; 6.1 mg/kg IV 2×/week; geometric mean±SD, plasma; read-out: Cmax
measured_property: Cmax (ng/mL)
Write the number in ng/mL without appending the unit.

compound | measured_property | measurement
NC(=O)c1ccc(I)c(N)c1 [I-ABM, 4-iodo-3 aminobenzamide] | Cmax | 7.2

Proceeding to the next compound to report its Cmax.
Report Cmax for NC(=O)c1ccc(I)c([N+](=O)[O-])c1 [Iniparib, 4-iodo-3-nitrobenzamide]
928

====

Let's look at some compounds and their measured Cmax.
test: Phase I clinical trial GBM, pharmacokinetics; format: in vivo, human; conditions: human; 8.0 mg/kg IV 2×/week; geometric mean±SD, plasma; read-out: Cmax
Your answer should be a plain number; it is taken to be in ng/mL.

compound | measurement
NC(=O)c1ccc(I)c(N)c1 [I-ABM, 4-iodo-3 aminobenzamide] | 10.3

Switching to the query record.
Report Cmax, nothing else, for this compound: NC(=O)c1ccc(I)c([N+](=O)[O-])c1 [Iniparib, 4-iodo-3-nitrobenzamide]
3690

====

experiment: Phase I clinical trial GBM, pharmacokinetics; format: in vivo, human; conditions: human; 9.5 mg/kg IV 2×/week; geometric mean±SD, plasma; read-out: Cmax
measured_property: Cmax
Give the value; after it, write the unit.

compound | Cmax
NC(=O)c1ccc(I)c([N+](=O)[O-])c1 [Iniparib, 4-iodo-3-nitrobenzamide] | 2140 ng/mL

Tell us which Cmax value is on record for NC(=O)c1ccc(I)c(N)c1 [I-ABM, 4-iodo-3 aminobenzamide]
13.6 ng/mL
